# testTarget: human H3 receptor (Homo sapiens, UniProt Q9Y5N1)
# Construct: expressed in transfected cells
# Sequence (Q9Y5N1 whole entry): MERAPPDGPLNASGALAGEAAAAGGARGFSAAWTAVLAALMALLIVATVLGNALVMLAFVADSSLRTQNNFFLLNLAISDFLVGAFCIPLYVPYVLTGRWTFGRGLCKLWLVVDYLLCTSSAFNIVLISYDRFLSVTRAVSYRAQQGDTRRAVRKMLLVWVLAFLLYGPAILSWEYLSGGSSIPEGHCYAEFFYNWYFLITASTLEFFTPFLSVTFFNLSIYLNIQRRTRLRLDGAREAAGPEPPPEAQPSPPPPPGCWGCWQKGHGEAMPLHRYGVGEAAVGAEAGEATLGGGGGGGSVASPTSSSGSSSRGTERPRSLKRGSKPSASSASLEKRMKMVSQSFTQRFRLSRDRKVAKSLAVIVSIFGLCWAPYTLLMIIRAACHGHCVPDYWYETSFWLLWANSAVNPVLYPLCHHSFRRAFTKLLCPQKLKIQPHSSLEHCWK
# methodDescription: Human H3 radioligand binding ([3H]-N-alpha-methylhistamine, CHO cell membranes, SPA)
# setupConditions: Table B, binding constant as letter class
pKi: −log10 of the molar value.
Form field: pKi (one value per entry).

Answered cases to consult:
O=C1CC(c2ccccn2)C(c2ccc(OC3CCNCC3)cc2)=NN1 (stereo not drawn); < 6.00
C[C@@H]1CCCN1CCCOc1c(Br)cc(-c2cn[nH]c(=O)c2)cc1Br; 7.00 to 10.00
C[C@@H]1CCCN1CCCOc1ccc(C2=NNC(=O)CC2(C)C)cc1; 7.00 to 10.00
O=C1NN=C(c2ccc(OC3CCN(C4CCC4)CC3)cc2)C2CC12 (single isomer, unassigned) [Example 249]; 7.00 to 10.00
CC(C)N1CCC(COc2ccc(-c3ccc(=O)[nH]n3)cn2)CC1; 6.30 to 7.00

Query block: Return pKi (reported value) for this compound: O=c1ccc(-c2ccccc2)nn1-c1ccc(OC2CCN(C3CCC3)CC2)nc1
Result block: 7.00 to 10.00

Query block: Return pKi (reported value) for this compound: O=C1NN=C(c2ccc(OC3CCN(C4CCC4)CC3)cc2)C2CC12 (stereo not drawn) [Example 244]
Result block: 7.00 to 10.00

Query block: Return pKi (reported value) for this compound: CC1CC(=O)NN=C1c1ccc(OCCCN2CCCC2)cc1 (racemic)
Result block: 7.00 to 10.00

Query block: Return pKi (reported value) for this compound: C[C@@H]1CCCN1CCCOc1ccc(C2=NNC(=O)C3CCC23)cc1 (stereo partly drawn)
Result block: 7.00 to 10.00

Query block: Return pKi (reported value) for this compound: O=c1ccc(-c2ccc(OCCCN3CCCCC3)nc2)n[nH]1
Result block: 7.00 to 10.00

Query block: Return pKi (reported value) for this compound: Cn1nc(-c2cccc(OCCCN3CCCCC3)c2)c2c(c1=O)CCC2
Result block: 6.30 to 7.00

Query block: Return pKi (reported value) for this compound: O=C1CCC(c2cc(F)c(OC3CCN(C4CCC4)CC3)c(F)c2)=NN1
Result block: 7.00 to 10.00

Query block: Return pKi (reported value) for this compound: C[C@@H]1CCCN1CCCOc1ccc(-n2ncc3ccccc3c2=O)cc1
Result block: 7.00 to 10.00

Where do these numbers come from? They come from patent US8586588B2.
